target_or_system: T1, full-length MAGEA4 wild type (purified) (human, UniProt P43358 1-317)
T1 construct: MAGEA4, human, Uniprot P43358, full length; Cloned into PET15C; No removal of the His tag is described; the diGly search database lists 'His-tagged MAGEA4'; also called MAGEA4 WT; FL MAGEA4; source: E. coli BL21star, purified (TALON, SEC)
T1 sequence (looked up): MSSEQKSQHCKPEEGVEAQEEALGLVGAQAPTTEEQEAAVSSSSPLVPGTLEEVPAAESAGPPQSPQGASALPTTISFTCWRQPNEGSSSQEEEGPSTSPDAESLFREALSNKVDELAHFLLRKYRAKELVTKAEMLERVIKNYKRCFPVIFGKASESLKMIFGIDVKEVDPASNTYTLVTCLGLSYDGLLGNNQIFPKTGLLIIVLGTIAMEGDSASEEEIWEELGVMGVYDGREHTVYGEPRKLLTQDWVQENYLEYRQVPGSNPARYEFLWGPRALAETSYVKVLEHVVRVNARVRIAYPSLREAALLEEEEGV
method_description: ITC; RAD18 R6BD peptide at 200 µM titrated into protein at 20 µM; MicroCal ITC200, 25 °C; SEC buffer (100 mM NaCl, 20 mM HEPES pH 7.5, 1 mM TCEP)
applied_conditions: both partners purified
measurement_kind: pKd
Friendly reminder that pKd comes from taking -log10 of the concentration in mol/L.

## Input Which pKd is listed for SKYRKKHKSEFQLLVDQARKGYKKIAG (peptide, UniProt Q9NS91 340-366, looked up, also called 27 amino acid peptide corresponding to the RAD18 R6BD; source: synthetic peptide, bought: GenScript) [RAD18 R6BD peptide (residues 340-366)] ?
## Output 6.39
